meta.source: patent EP0049913A2

Reported Potency Ratio (P.R.) MIC 50 values for a set of compounds
Tested on: Candida albicans
assay.overview: agar dilution test, Candida albicans
Format: cell-based
protocol.conditions: 2 d, ratio to activity of miconazol (= 1)
Counter-ions that a name gives are not always drawn.
Number only, please.

# input Given the compound CC(C)(C)C(=Cn1ccnc1)c1ccc(Cl)cc1Cl.O=[N+]([O-])O , what is its reported Potency Ratio (P.R.) MIC 50?
# output 0.7

# input Please answer likewise for Clc1ccc(C(=Cn2ccnc2)C2CCCCC2)cc1 [V, hydrochloride]
# output 1.3

# input Okay, and CCC(C)C(=Cn1ccnc1)c1ccc(Cl)cc1 (stereo not drawn) ?
# output 1.7

# input Now consider CCC(C)C(=Cn1ccnc1)c1ccc(Cl)cc1Cl.Cl (stereo not drawn) .
# output 0.7

# input Now the same for Clc1ccc(C(=Cn2ccnc2)C2CCCCC2)c(Cl)c1 [VI, hydrochloride]
# output 0.9

Turning now to a further record.
# input What does the data say about its Potency Ratio (P.R.) MIC 50? Entry: CCCC(=Cn1ccnc1)c1ccc(Cl)cc1Cl.Cl
# output 1.0

====

System: Candida albicans
assay.overview: agar dilution test, Candida albicans
Format: cell-based
protocol.conditions: 48 h, after 2 d, complete inhibition of 50% of the strains tested, read-out: MIC 50
Counter-ions that a name gives are not always drawn.
measurement.name: MIC50 (ng/mL)
Write the number in ng/mL without appending the unit.

Solved entries:
# input May I ask what MIC50 has been recorded for CCC(C)C(=Cn1ccnc1)c1ccc(Cl)cc1 (centres unmarked) ?
# output 2

# input Similarly, Clc1ccc(C(=Cn2ccnc2)C2CCCCC2)c(Cl)c1 [VI, hydrochloride] ?
# output 4

# input Entry CCC(C)C(=Cn1ccnc1)c1ccc(Cl)cc1Cl.Cl (centres unmarked) please
# output 5

# input Next up: Clc1ccc(C(=Cn2ccnc2)C2CCCCC2)cc1 [V, hydrochloride]
# output 3

Let us examine a further case.
# input Please report the recorded MIC50 for CCCC(=Cn1ccnc1)c1ccc(Cl)cc1Cl.Cl .
# output 3

====

// reported Potency Ratio (P.R.) MIC 90 per item
Test system: Candida albicans
assay.overview: agar dilution test, Candida albicans
Format: cell-based
protocol.conditions: 2 d, ratio to activity of miconazol (= 1)
Structures can show the parent of a compound that is named as a salt.

# input What does the data say about its Potency Ratio (P.R.) MIC 90? Entry: CCC(C)C(=Cn1ccnc1)c1ccc(Cl)cc1Cl.Cl (stereo not drawn)
# output 0.9

Next:
# input Please look up its Potency Ratio (P.R.) MIC 90: CCC(C)C(=Cn1ccnc1)c1ccc(Cl)cc1 (stereo not drawn)
# output 1.7

# input Ok, now Clc1ccc(C(=Cn2ccnc2)C2CCCCC2)c(Cl)c1 [VI, hydrochloride]
# output 0.7

# input Same again, this time with CCCC(=Cn1ccnc1)c1ccc(Cl)cc1Cl.Cl
# output 1.2

# input Continue with Clc1ccc(C(=Cn2ccnc2)C2CCCCC2)cc1 [V, hydrochloride]
# output 1.0

# input Now this one: CC(C)(C)C(=Cn1ccnc1)c1ccc(Cl)cc1Cl.O=[N+]([O-])O
# output 0.9

====

Tested on: Trichophyton mentagrophytes strain R 177
assay.overview: method C: experimental dermatophytic infection in guinea pigs
Assay type: in vivo
protocol.conditions: local treatment, 2% in Plastibase, twice daily for 10 days; scored on 14th day; grades 1-4; untreated animals 4
Structures can show the parent of a compound that is named as a salt.
measurement.name: A.L.I. (average of lesion intensities)
The reply should be a number, written without any unit.

Below, each entry is followed by its recorded A.L.I. (average of lesion intensities) result.
# input What measured A.L.I. (average of lesion intensities) goes with CCC(C)C(=Cn1ccnc1)c1ccc(Cl)cc1Cl.Cl (centres unmarked) ?
# output 0

# input Do the same for CCC(C)C(=Cn1ccnc1)c1ccc(Cl)cc1 (centres unmarked) please
# output 0

# input Item: Clc1ccc(C(=Cn2ccnc2)C2CCCCC2)c(Cl)c1 [VI, hydrochloride]
# output 0.4

# input Now consider CC(C)(C)C(=Cn1ccnc1)c1ccc(Cl)cc1Cl.O=[N+]([O-])O .
# output 0

Shift focus to the following entry.
# input Sample CCCC(=Cn1ccnc1)c1ccc(Cl)cc1Cl.Cl — what was its A.L.I. (average of lesion intensities)?
# output 0
